experiment: binders of probe aHhip on microarray, primary screen, stem cell growth factor project, biochemical, small-molecule microarray, fluorescence 635/667 (AID 1087); details: higher = more signal;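 also: score merges spot fluorescence at 667nm with spot signal to noise ratio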
Field: composite z-score. Provide a value for each of the compounds that follow.
Answers are plain numbers.

INSERT INTO measurements (compound, measurement) VALUES
  ('CN1C(=O)C2C=CC(C(O)c3ccc(-c4ccccc4)s3)N(Nc3ccccc3)C2C1=O (stereo not given)', 0.245),
  ('C=CCC(OC(C)=O)[C@@H]1[C@@H](N(Cc2ccc(-c3ccccc3)cc2)C(=O)c2cccc3ccccc23)c2cc(OCCCO)ccc2N1C(=O)c1ccc2ccccc2c1 (stereo not given in full)', -0.0672),
  ('O=C1O[C@@H](c2ccccc2)[C@@H](c2ccccc2)N2[C@@H](c3ccc(OCCO)cc3)[C@]3(C(=O)Nc4ccc(C#CCCO)cc43)[C@@H](C(=O)Nc3nc4ccccc4s3)[C@H]12', -0.0241),
  ('C=C(CCCC)C(=O)CC[C@H](OC(C)=O)c1ccccc1OCCO', -0.358),
  ('COC(=O)[C@@]1(Cc2ccc(F)cc2)[C@H]2c3cc(C(=O)N(C)C)n(CCO)c3C[C@H]2CN1C(=O)c1ccccc1', 0.218);

// for each compound below, give its composite z-score
1. CCOC(=O)C1=CC[C@@H](c2ccccc2)N(S(=O)(=O)C[Si](C)(C)C)[C@H]1c1ccccc1
2. Cc1ccccc1C(O)C1C=CC2C(=O)N(c3ccccc3)C(=O)C2N1Nc1ccccc1F (stereo not given)
3. [N-]=[N+]=NCc1ccccc1C[C@]1(C(=O)N2CCCCC2)N=C(c2ccc(OCCCO)cc2)O[C@H]1c1ccccc1
4. CC(=O)c1ccc(C(O)C2C=CC3C(=O)N(C)C(=O)C3N2NC(=O)OC(C)(C)C)cc1 (stereo not given)
5. CC(C)=CCN(C(=O)C#Cc1ccccc1)[C@H](CO)c1ccccc1
6. COCCOC(=O)N1C(=O)[C@@]2(c3cc(C#Cc4ccc(OC)cc4)ccc31)[C@H](c1ccc(OCCO)cc1)N1[C@H](c3ccccc3)[C@H](c3ccccc3)OC(=O)[C@H]1[C@@H]2C(=O)N1CCCCCCC1

Result:
-0.123
-0.0994
0.0722
-0.154
-0.0994
2.59

// for each compound below, give its composite z-score
1. C=CCC(OC(C)=O)[C@@H]1[C@@H](N(Cc2cccc3ccccc23)C(=O)c2ccc(-c3ccccc3)cc2)c2cc(OCCCO)ccc2N1C(=O)c1ccc2ccccc2n1 (stereo not given in full)
2. O=C1N(CCS(=O)(=O)c2ccccc2)c2ccccc2[C@@H]2OC(c3ccc(OCCCO)cc3)=N[C@]12CCS(=O)(=O)c1ccccc1
3. C=C(C(=O)CC[C@@H](OC(C)=O)c1cccc(OCCO)c1)C(C)C
4. CC(C)[Si](C#CCCCC#N)(O[C@H](c1ccccc1)c1cn([C@H](C)c2ccccc2)nn1)C(C)C

Result:
1: 0.28; 2: 0.0053; 3: -0.0672; 4: -0.214

meta.source: PubChem BioAssay
